Read-out: Macrophage colony-stimulating factor (MCSF), CSF1 (gene 1435)
Experiment: BSK_LPS_MCSF: BioMAP Diversity Plus: LPS Assay for Macrophage colony-stimulating factor (MCSF) Biomarker Activity (AID 2283083)
Conditions: primary human HUVEC with PBMC; actives raise or lower the signal
The source made the active and inactive calls. The calls were made as follows: active = hit-call score of the fitted dose curve at least 0.9, where 1 is the maximum; inactive = score below 0.9.
Reply using exactly one outcome from active, inactive

Look over these answered cases.
Molecule | Label Value
C=CC(=O)OCC(C)OCC(C)OCC(C)OC(=O)C=C (centres undefined) | active
CC/C=C\C/C=C\C/C=C\CCCCCCCC(=O)OC | active
Oc1ccc(/C=C/c2cc(O)cc(O)c2)cc1 | inactive
C=C(C)C(=O)OCCCCCCCCCCCC | inactive
CCCCCCCO | inactive

Write down the call the test reported for this molecule. Item: Nc1ccc(C(=O)O)cc1
inactive

Write down the call the test reported for this molecule. Item: Nc1cccc(N)n1
inactive

Write down the call the test reported for this molecule. Item: CC(C)c1cccc(C(C)C)c1N
inactive

Write down the call the test reported for this molecule. Item: CCOC(=O)C1=NN(c2ccc(Cl)cc2Cl)C(C)(C(=O)OCC)C1 (centres undefined)
inactive

Write down the call the test reported for this molecule. Item: CC(c1cc(C(C)(C)C)cc(C(C)(C)C)c1O)c1cc(C(C)(C)C)cc(C(C)(C)C)c1O
inactive

Write down the call the test reported for this molecule. Item: O=C(Cl)c1c(Cl)c(Cl)c(C(=O)Cl)c(Cl)c1Cl
inactive

Write down the call the test reported for this molecule. Item: CC1=CC=C(C(C)C)CC1
inactive

Write down the call the test reported for this molecule. Item: O=C1CCCCCCCCCCC1
inactive

Write down the call the test reported for this molecule. Item: C1CNCCN1
inactive

---

Assay: ACEA_ER_80hr: ACEA Biosciences xCELLigence Real-Time Cell Analysis on Estrogen Receptor Agonism for Proliferation (AID 2282667)
Details: T47D proliferation, impedance (xCELLigence), 80 h
Results filed as inconclusive are left out. The source made the active and inactive calls. How the source made its calls: active means hit-call score of the fitted dose curve at least 0.9, where 1 is the maximum; inconclusive means response in the unintended direction; inactive means score below 0.9.
Reply using exactly one outcome from active, inactive

Look over these answered cases.
Molecule | Label Value
CC(C)c1cc(C(C)C)cc(C(C)C)c1 | inactive
CCCCCCOC(=O)CCCCC(=O)OCCCCCC | inactive
CCOC(=O)/C=C\C(=O)OCC | inactive
O=C(Cl)c1c(Cl)c(Cl)c(C(=O)Cl)c(Cl)c1Cl | inactive
CC/C=C\CCOC(=O)c1ccccc1O | inactive
CCc1occc(=O)c1O | inactive
NC(=O)Nc1ccccc1 | inactive
CCCCCCCCCCCCCCCCCCOS(=O)(=O)O | active
COc1nccnc1CC(C)C | inactive
O=C(O[C@@H]1Cc2c(O)cc(O)cc2O[C@@H]1c1cc(O)c(O)c(O)c1)c1cc(O)c(O)c(O)c1 | inactive

Write down the call the test reported for this molecule. Item: Oc1c(Cl)cc(Cl)c(Cl)c1Cl
active

Write down the call the test reported for this molecule. Item: O=C(O)CC(C(=O)O)S(=O)(=O)O (configuration not stated)
inactive

Write down the call the test reported for this molecule. Item: CCCC1CCCC(=O)O1 (configuration not stated)
inactive

Write down the call the test reported for this molecule. Item: C=C(C)OC(C)=O
inactive

Write down the call the test reported for this molecule. Item: Nc1ncnc2nc[nH]c12
inactive

Write down the call the test reported for this molecule. Item: CC=C(C)C=CC=C(C)C
inactive

Write down the call the test reported for this molecule. Item: CC(C)c1ccc(O)c(C(C)C)c1
inactive

Write down the call the test reported for this molecule. Item: O=C(C=Cc1ccccc1)OCCc1ccccc1
inactive

---

Read-out: C-C motif chemokine 2 (Homo sapiens) (UniProt P13500)
Assay: BSK_KF3CT_MCP1: BioMAP Diversity Plus: KF3CT Assay for Monocyte Chemoattractant Protein 1 (MCP1/CCL2) Biomarker Activity (AID 2283073)
Details: primary human keratinocytes with fibroblasts; actives raise or lower the signal
Active and inactive are the calls of the source. How the source made its calls: active means hit-call score of the fitted dose curve at least 0.9, where 1 is the maximum; inactive means score below 0.9.
Reply using exactly one outcome from active, inactive

Look over these answered cases.
Compound | Label Value
c1ccc2c(c1)[nH]c1ccccc12 | inactive
CC(C)C(=O)OCCc1ccccc1 | inactive
CC1=CC=C(C(C)C)CC1 | inactive
C=CC(=O)OCCCCCCOC(=O)C=C | inactive
CCC1(C)C(=O)N(Cl)C(=O)N1Cl (stereo unspecified) | inactive

Write down the call the test reported for this compound. Item: Nc1ccc(C(=O)O)cc1
inactive

Write down the call the test reported for this compound. Item: CC(C)c1cccc(C(C)C)c1N
inactive

Write down the call the test reported for this compound. Item: CCOC(=O)/C=C\C(=O)OCC
active

Write down the call the test reported for this compound. Item: CCCC(C)C(=O)OCC (stereo unspecified)
inactive

Write down the call the test reported for this compound. Item: CC/C=C\CCOC(=O)c1ccccc1O
inactive

---

Target: human Neurokinin, NK2 Receptor, TACR2 (gene 6865) (UniProt P21452)
Sequence (P21452 whole entry, looked up): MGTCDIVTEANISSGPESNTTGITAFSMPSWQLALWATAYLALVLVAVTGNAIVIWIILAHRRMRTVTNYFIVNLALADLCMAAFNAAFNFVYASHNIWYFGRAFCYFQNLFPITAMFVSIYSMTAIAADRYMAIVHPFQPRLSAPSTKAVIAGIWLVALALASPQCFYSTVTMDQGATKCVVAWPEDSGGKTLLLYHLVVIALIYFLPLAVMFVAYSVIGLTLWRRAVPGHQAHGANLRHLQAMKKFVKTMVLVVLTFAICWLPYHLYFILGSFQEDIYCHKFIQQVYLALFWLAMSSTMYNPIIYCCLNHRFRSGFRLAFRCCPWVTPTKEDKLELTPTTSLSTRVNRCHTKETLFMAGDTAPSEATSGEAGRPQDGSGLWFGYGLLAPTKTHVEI
Assay: NVS_GPCR_hNK2: NovaScreen (NVS) G Protein-Coupled Receptor Assay for human Neurokinin, NK2 Receptor (AID 2283278);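 also: actives reduce bound radioligand signal relative to DMSO baseline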
Results filed as inconclusive are left out. Active and inactive are the calls of the source. The calls were made as follows: active = hit-call score of the fitted dose curve at least 0.9, where 1 is the maximum; inconclusive = response in the unintended direction; inactive = score below 0.9.
Reply using exactly one outcome from active, inactive

Chemical Structure | Measurement Target | Label Value
Oc1ccc(/C=C/c2cc(O)cc(O)c2)cc1 | human Neurokinin, NK2 Receptor, TACR2 (gene 6865) (UniProt P21452) | active
[Cl][Sc]([Cl])[Cl] | human Neurokinin, NK2 Receptor, TACR2 (gene 6865) (UniProt P21452) | inactive

Write down the call the test reported for this compound. Item: c1ccc2sc(SSN3CCOCC3)nc2c1
active

Write down the call the test reported for this compound. Item: CC(C)[N+](C)(CCOC(=O)C1c2ccccc2Oc2ccccc21)C(C)C
active

---

Target: human Phosphodiesterase 10 (PDE10), PDE10A (gene 10846)
Assay: NVS_ENZ_hPDE10: NovaScreen (NVS) Enzymatic Assay for human Phosphodiesterase 10 (PDE10) (AID 2283195)
Method: NVS_ENZ_hPDE10 is a biochemical, single-readout assay that uses extracted gene-proteins in a cell-free assay. Measurements were taken 1 hour after chemical dosing in a 384-well plate.NVS_ENZ_hPDE10 is one of one assay component(s) measured or calculated from the NVS_ENZ_hPDE10 assay. […] This assay endpoint, NVS_ENZ_hPDE10, was analyzed in the positive analysis fitting direction relative to DMSO as the negative control and baseline of activity. […]
Inconclusive results are not listed. Calls of active or inactive are those of the source. Rule for the calls: active = hit-call score of the fitted dose curve at least 0.9, where 1 is the maximum; inconclusive = response in the unintended direction; inactive = score below 0.9.
Reply using exactly one outcome from t (active), f (inactive)

Look over these answered cases.
Molecule | Label Value
CCCCOCC(C)O (stereo not given) | f
CC(=O)OC1CCCCC1 | f
O=C1CCCCCCCCCCC1 | f
CCN(CC)c1cccc(C)c1 | f
CCC1(C)C(=O)N(Cl)C(=O)N1Cl (stereo not given) | t

Write down the call the test reported for this molecule. Item: C=C(C)C1CC=C(C)C(OC(C)=O)C1 (stereo not given)
f

Write down the call the test reported for this molecule. Item: CC1(C)C(=O)N(CO)C(=O)N1CO
t

Write down the call the test reported for this molecule. Item: [Cl][Sc]([Cl])[Cl]
t

Write down the call the test reported for this molecule. Item: Cn1cccc1
t

Write down the call the test reported for this molecule. Item: CC=C(C)C=CC=C(C)C
f

---

Assay: ATG_SREBP_CIS: Attagene CIS-FACTORIAL HepG2 Assay for human Sterol Regulatory Element Binding (SREBP) (AID 2282962)
Conditions: HepG2 Attagene cis-factorial SREBP reporter, mRNA; actives raise or lower the signal
The source made the active and inactive calls. How the source made its calls: active means hit-call score of the fitted dose curve at least 0.9, where 1 is the maximum; inactive means score below 0.9.

Compound | outcome
C1CCSC1 | inactive
CC(=O)/C=C/C1C(C)=CCCC1(C)C (stereo not drawn) | inactive
Nc1ccc(Cl)c(N)c1 | inactive

---

Read-out: Tissue Factor, F3 (gene 2152)
Assay: BSK_LPS_TissueFactor: BioMAP Diversity Plus: LPS Assay for Tissue Factor Biomarker Activity (AID 2283084)
Settings: primary human HUVEC with PBMC; actives raise or lower the signal
The source made the active and inactive calls. How the source made its calls: active means hit-call score of the fitted dose curve at least 0.9, where 1 is the maximum; inactive means score below 0.9.
Reply using exactly one outcome from active, inactive

Look over these answered cases.
Molecule | Label Value
c1ccc2c(c1)[nH]c1ccccc12 | inactive
O=C1CCCCCCCCCCCN1 | inactive
C=CC(=O)OCC(C)OCC(C)OCC(C)OC(=O)C=C (stereo not given) | active

Pending molecule:
Write down the call the test reported for this molecule. Item: Nc1nc(N)nc(-c2ccccc2)n1
inactive

---

Test: ACEA_ER_AUC_viability: ACEA Biosciences xCELLigence Real-Time Cell Analysis on Estrogen Receptor Agonism for Viability (AID 2283782);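 also: continuous compound exposure with impedance area under curve over 80 h; hit means loss of impedance signal meaning reduced cell growth or viability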
Procedure: ACEA_ER is a cell-based, single-readout assay that uses T47D, a human breast cell line, with measurements taken at 80 hours after chemical dosing in a 96-well plate, although TO2 (mc0.srcf) used a 384-well plate. Differences in plate size can be ignored given data normalization.ACEA_ER_AUC_viability is one of two assay component(s) measured or calculated from the ACEA_ER assay. […]
Results filed as inconclusive are left out. Calls of active or inactive are those of the source. The calls were made as follows: active = hit-call score of the fitted dose curve at least 0.9, where 1 is the maximum; inconclusive = response in the unintended direction; inactive = score below 0.9.
Reply using exactly one outcome from active, inactive

Look over these answered cases.
Molecule | Label Value
CCCC=C(C=O)CC | inactive
CCCCCCCCCCCC(=O)N(C)CC(=O)O | inactive
CC(=O)CCC=C(C)C | inactive
C1CCSC1 | inactive
C=CC(=O)NCOCCCC | inactive
O=C(O)CCCC(=O)O | inactive
C=CC(C)(CCC=C(C)C)OC(=O)C=Cc1ccccc1 (stereo unspecified) | active
C=C(C)C(=O)OCCCCCCCCCCCC | inactive

Write down the call the test reported for this molecule. Item: Cn1ccnc1
inactive

Write down the call the test reported for this molecule. Item: O=C(C=Cc1ccccc1)OCCc1ccccc1
active
